Test system: 945468-187-T-J3-PDC spheroids with HUVEC/MSC, viability
Assay: Anticancer human tumor 945468-187-T-J3-PDC patient-derived rectal carcinoma cell line growth inhibition [PI3K]
Conditions: second compound 0.01 µM; first compound 0.1 µM; active compounds read low
Label met when viability, T/C is strictly below 80%; otherwise label not met.

# Compound, Group label
rows = [
    ("CC(C)n1nc(-c2ccc3oc(N)nc3c2)c2c(N)ncnc21 + CC(Nc1ccc2c(c1)OCCn1cc(N3C(=O)OCC3C(F)F)nc1-2)C(N)=O", "met"),
    ("CC1(C)CCC(Nc2ncc(C(F)(F)F)c(-c3c[nH]c4c(P(C)(C)=O)c(C#N)ccc34)n2)CN1 (stereo unspecified) + CC(Nc1ccc2c(c1)OCCn1cc(N3C(=O)OCC3C(F)F)nc1-2)C(N)=O", "not met"),
    ("CNC(=O)c1ccc(N2C(=S)N(c3ccc(C#N)c(C(F)(F)F)c3)C(=O)C2(C)C)cc1F + COc1c(OCCCN2CCOCC2)ccc2c3n(c(=NC(=O)c4cnc(N)nc4)nc12)CCN3", "not met"),
    ("Cn1ncc(Cl)c1-c1cc(C(=O)NC(CN)Cc2cccc(F)c2)sc1Cl (stereo unspecified) + COc1c(OCCCN2CCOCC2)ccc2c3n(c(=NC(=O)c4cnc(N)nc4)nc12)CCN3", "not met"),
    ("CC(Cn1ccc(-c2ccc(C#N)c(Cl)c2)n1)NC(=O)c1cc(C(C)O)[nH]n1 (stereo unspecified) + COc1c(OCCCN2CCOCC2)ccc2c3n(c(=NC(=O)c4cnc(N)nc4)nc12)CCN3", "not met"),
    ("CCN1CCN(Cc2ccc(Nc3ncc(F)c(-c4cc(F)c5nc(C)n(C(C)C)c5c4)n3)nc2)CC1 + CC(Nc1ccc2c(c1)OCCn1cc(N3C(=O)OCC3C(F)F)nc1-2)C(N)=O", "not met"),
]

Req: Answer whether the compound CCN1CCN(Cc2ccc(Nc3ncc(F)c(-c4cc(F)c5nc(C)n(C(C)C)c5c4)n3)nc2)CC1 + COc1c(OCCCN2CCOCC2)ccc2c3n(c(=NC(=O)c4cnc(N)nc4)nc12)CCN3 has viability, T/C strictly less than 80%
Resp: not met

Req: Answer whether the compound CC(=O)c1c(C)c2cnc(Nc3ccc(N4CCNCC4)cn3)nc2n(C2CCCC2)c1=O + CC(Nc1ccc2c(c1)OCCn1cc(N3C(=O)OCC3C(F)F)nc1-2)C(N)=O has viability, T/C strictly less than 80%
Resp: not met

Req: Answer whether the compound CC(C)n1nc(-c2ccc3oc(N)nc3c2)c2c(N)ncnc21 + COc1c(OCCCN2CCOCC2)ccc2c3n(c(=NC(=O)c4cnc(N)nc4)nc12)CCN3 has viability, T/C strictly less than 80%
Resp: met

Req: Answer whether the compound Cn1ncc(Cl)c1-c1cc(C(=O)NC(CN)Cc2cccc(F)c2)sc1Cl (stereo unspecified) + CC(Nc1ccc2c(c1)OCCn1cc(N3C(=O)OCC3C(F)F)nc1-2)C(N)=O has viability, T/C strictly less than 80%
Resp: not met

---

System: 945468-187-T-J3-PDC spheroids with HUVEC/MSC, viability
Test: Anticancer human tumor 945468-187-T-J3-PDC cell line growth inhibition [PI3K];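 further: spheroids exposed to agents for 7 days before viability read; 100% = DMSO vehicle control viability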
Details: second compound 0.0316 µM; first compound 10 µM; active compounds read low
Consider the following molecules and their measured viability, T/C readings.

Req: # query: viability, T/C of entry CC(C)NCC(C(=O)N1CCN(c2ncnc3c2C(C)CC3O)CC1)c1ccc(Cl)cc1 (stereo not given) + CC(Nc1ccc2c(c1)OCCn1cc(N3C(=O)OCC3C(F)F)nc1-2)C(N)=O
Resp: 47.3%

Req: # query: viability, T/C of entry C=CC(=O)N1CCN(c2nc(=O)n(-c3c(C)ccnc3C(C)C)c3nc(-c4c(O)cccc4F)c(F)cc23)C(C)C1 (stereo not given) + CC(Nc1ncnc2nc[nH]c12)c1cc2cccc(Cl)c2c(=O)n1-c1ccccc1
Resp: 98.3%

Req: # query: viability, T/C of entry CNC(=O)c1ccc(N2C(=S)N(c3ccc(C#N)c(C(F)(F)F)c3)C(=O)C2(C)C)cc1F + Cc1nc(NC(=O)N2CCCC2C(N)=O)sc1-c1ccnc(C(C)(C)C(F)(F)F)c1
Resp: 104%

Req: # query: viability, T/C of entry CC(C)NCC(C(=O)N1CCN(c2ncnc3c2C(C)CC3O)CC1)c1ccc(Cl)cc1 (stereo not given) + COc1c(OCCCN2CCOCC2)ccc2c3n(c(=NC(=O)c4cnc(N)nc4)nc12)CCN3
Resp: 25.8%

Req: # query: viability, T/C of entry C=CC(=O)N1CCN(c2nc(=O)n(-c3c(C)ccnc3C(C)C)c3nc(-c4c(O)cccc4F)c(F)cc23)C(C)C1 (stereo not given) + COc1c(OCCCN2CCOCC2)ccc2c3n(c(=NC(=O)c4cnc(N)nc4)nc12)CCN3
Resp: 96.9%

---

Consider the following compounds and their measured viability, T/C readings.
Tested on: 945468-187-T-J3-PDC spheroids with HUVEC/MSC, viability
Experiment: Anticancer human tumor 945468-187-T-J3-PDC cell line growth inhibition [PI3K];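 further: spheroids exposed to agents for 7 days before viability read; 100% = DMSO vehicle control viability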
Settings: second compound 3.16 µM; first compound 3.16 µM; active compounds read low
Numeric answer only, unit % assumed.

Here are 6 compounds together with their reported answers.
# Compound, Assay system, viability, T/C, %
data = [
    ("C[C@@H](NC(=O)c1ncnc(N)c1Cl)c1ncc(C(=O)Nc2cc(C(F)(F)F)c(Cl)cn2)s1 + CC(Nc1ncnc2nc[nH]c12)c1cc2cccc(Cl)c2c(=O)n1-c1ccccc1", "945468-187-T-J3-PDC spheroids with HUVEC/MSC, viability", 96.4),
    ("CC1(C)CCC(Nc2ncc(C(F)(F)F)c(-c3c[nH]c4c(P(C)(C)=O)c(C#N)ccc34)n2)CN1 (stereo unspecified) + CC(Nc1ncnc2nc[nH]c12)c1cc2cccc(Cl)c2c(=O)n1-c1ccccc1", "945468-187-T-J3-PDC spheroids with HUVEC/MSC, viability", 79.4),
    ("Cn1nccc1Nc1nccc(-c2ccn(C(CO)c3ccc(Cl)c(F)c3)c(=O)c2)n1 (stereo unspecified) + CC(Nc1ncnc2nc[nH]c12)c1cc2cccc(Cl)c2c(=O)n1-c1ccccc1", "945468-187-T-J3-PDC spheroids with HUVEC/MSC, viability", 116),
    ("Cn1ncc(Cl)c1-c1cc(C(=O)NC(CN)Cc2cccc(F)c2)sc1Cl (stereo unspecified) + Cc1nc(NC(=O)N2CCCC2C(N)=O)sc1-c1ccnc(C(C)(C)C(F)(F)F)c1", "945468-187-T-J3-PDC spheroids with HUVEC/MSC, viability", 32.7),
    ("CC1(C)CCC(Nc2ncc(C(F)(F)F)c(-c3c[nH]c4c(P(C)(C)=O)c(C#N)ccc34)n2)CN1 (stereo unspecified) + Cc1nc(NC(=O)N2CCCC2C(N)=O)sc1-c1ccnc(C(C)(C)C(F)(F)F)c1", "945468-187-T-J3-PDC spheroids with HUVEC/MSC, viability", 44.5),
    ("CCCS(=O)(=O)Nc1ccc(F)c(C(=O)c2c[nH]c3ncc(-c4ccc(Cl)cc4)cc23)c1F + CC(Nc1ncnc2nc[nH]c12)c1cc2cccc(Cl)c2c(=O)n1-c1ccccc1", "945468-187-T-J3-PDC spheroids with HUVEC/MSC, viability", 105),
]

Req: # query: viability, T/C of entry CC(Cn1ccc(-c2ccc(C#N)c(Cl)c2)n1)NC(=O)c1cc(C(C)O)[nH]n1 (stereo unspecified) + CC(Nc1ncnc2nc[nH]c12)c1cc2cccc(Cl)c2c(=O)n1-c1ccccc1
Resp: 113

Req: # query: viability, T/C of entry C=CC(=O)N1CCN(c2nc(=O)n(-c3c(C)ccnc3C(C)C)c3nc(-c4c(O)cccc4F)c(F)cc23)C(C)C1 (stereo unspecified) + Cc1nc(NC(=O)N2CCCC2C(N)=O)sc1-c1ccnc(C(C)(C)C(F)(F)F)c1
Resp: 113

---

Consider the following compounds and their measured viability, T/C readings.
Tested on: 945468-187-T-J3-PDC spheroids with HUVEC/MSC, viability
Test: Anticancer human tumor 945468-187-T-J3-PDC cell line growth inhibition [PI3K];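 further: spheroids exposed to agents for 7 days before viability read; 100% = DMSO vehicle control viability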
Settings: second compound 0.316 µM; first compound 0.0316 µM; active compounds read low
Numeric answer only, unit % assumed.

Here are 8 compounds together with their reported answers.
# Compound, Recorded result
measured = [
    ("CC1(C)CCC(CN2CCN(c3ccc(C(=O)NS(=O)(=O)c4ccc(NCC5CCOCC5)c([N+](=O)[O-])c4)c(Oc4cnc5[nH]ccc5c4)c3)CC2)=C(c2ccc(Cl)cc2)C1 + CC(Nc1ccc2c(c1)OCCn1cc(N3C(=O)OCC3C(F)F)nc1-2)C(N)=O", 107),
    ("Cn1ncc(Cl)c1-c1cc(C(=O)NC(CN)Cc2cccc(F)c2)sc1Cl (stereo unspecified) + CC(Nc1ccc2c(c1)OCCn1cc(N3C(=O)OCC3C(F)F)nc1-2)C(N)=O", 96),
    ("CC(Cn1ccc(-c2ccc(C#N)c(Cl)c2)n1)NC(=O)c1cc(C(C)O)[nH]n1 (stereo unspecified) + COc1c(OCCCN2CCOCC2)ccc2c3n(c(=NC(=O)c4cnc(N)nc4)nc12)CCN3", 23.3),
    ("Cn1nccc1Nc1nccc(-c2ccn(C(CO)c3ccc(Cl)c(F)c3)c(=O)c2)n1 (stereo unspecified) + Cc1nc(NC(=O)N2CCCC2C(N)=O)sc1-c1ccnc(C(C)(C)C(F)(F)F)c1", 106),
    ("CC(C)n1nc(-c2ccc3oc(N)nc3c2)c2c(N)ncnc21 + CC(Nc1ncnc2nc[nH]c12)c1cc2cccc(Cl)c2c(=O)n1-c1ccccc1", 104),
    ("CC(C)NCC(C(=O)N1CCN(c2ncnc3c2C(C)CC3O)CC1)c1ccc(Cl)cc1 (stereo unspecified) + Cc1nc(NC(=O)N2CCCC2C(N)=O)sc1-c1ccnc(C(C)(C)C(F)(F)F)c1", 114),
    ("CC(Cn1ccc(-c2ccc(C#N)c(Cl)c2)n1)NC(=O)c1cc(C(C)O)[nH]n1 (stereo unspecified) + CC(Nc1ncnc2nc[nH]c12)c1cc2cccc(Cl)c2c(=O)n1-c1ccccc1", 95.5),
    ("CCCS(=O)(=O)Nc1ccc(F)c(C(=O)c2c[nH]c3ncc(-c4ccc(Cl)cc4)cc23)c1F + Cc1nc(NC(=O)N2CCCC2C(N)=O)sc1-c1ccnc(C(C)(C)C(F)(F)F)c1", 109),
]

Req: # query: viability, T/C of entry CC(=O)c1c(C)c2cnc(Nc3ccc(N4CCNCC4)cn3)nc2n(C2CCCC2)c1=O + Cc1nc(NC(=O)N2CCCC2C(N)=O)sc1-c1ccnc(C(C)(C)C(F)(F)F)c1
Resp: 99.8

Req: # query: viability, T/C of entry C#Cc1c(F)ccc2cc(O)cc(-c3ncc4c(N5CC6CCC(C5)N6)nc(OCC56CCCN5CC(F)C6)nc4c3F)c12 (stereo unspecified) + COc1c(OCCCN2CCOCC2)ccc2c3n(c(=NC(=O)c4cnc(N)nc4)nc12)CCN3
Resp: 22.8

Req: # query: viability, T/C of entry CC1(C)CCC(Nc2ncc(C(F)(F)F)c(-c3c[nH]c4c(P(C)(C)=O)c(C#N)ccc34)n2)CN1 (stereo unspecified) + COc1c(OCCCN2CCOCC2)ccc2c3n(c(=NC(=O)c4cnc(N)nc4)nc12)CCN3
Resp: 27.9
